Data origin, for the record: the Kinase Knowledgebase extract (Sharma et al. 2016)

experimental.target: EGFR (UniProt P00533)
quantity.measured: IC50 (nM)

compound.smiles	value
Fc1cccc(COc2ccc(Nc3ncncc3I)cc2Cl)c1	320

====

Reported pIC50 is given for each of the following compounds.
experimental.target: CDK2 (UniProt P24941)
method.description: Enzyme Assay
pIC50: −log10 of the molar value.
quantity.measured: pIC50

compound	quantity.measured	qualifier.sign	value
O=C1NCCCCCNc2nc(ncc2Br)Nc2cccc1c2	pIC50	=	5.15
Nc1nccc(-c2ccc(O)c(-c3ccnc(N)n3)c2)n1	pIC50	=	8.64
Cc1cc(C(=O)NCCN2CCOCC2)[nH]c1/C=C1\C(=O)Nc2ncnc(Nc3ccc(F)c(Cl)c3)c21	pIC50	<	5.00
COC(=O)[C@@]1(O)C[C@H]2O[C@]1(C)n1c3ccccc3c3c4c(c5c6ccccc6n2c5c31)C(=O)N[C@H]4CCCCCCC[C@@H]1NC(=O)c2c1c1c3ccccc3n3c1c1c2c2ccccc2n1[C@H]1C[C@](O)(C(=O)OC)[C@]3(C)O1	pIC50	=	3.92
Nc1nc(Nc2cccnc2)nn1-c1ccc2ccccc2n1	pIC50	=	6.40
Cc1cc2cnc(Nc3ccc(N4CCNCC4)cn3)nc2n(C2CCCC2)c1=O	pIC50	<	5.39
O=C(Nc1ccc2cnccc2c1)Nc1ncc(C2CCC2)s1	pIC50	=	6.75
COc1ccc2cnc(Nc3ccc(N4CCC(N)C4)cc3)nc2c1C(C)C (centres undefined)	pIC50	=	5.59
Ic1cnc2c(NCCc3cccnc3)nc(-c3ccccc3)cn12	pIC50	=	6.28

====

experimental.target: EGFR (UniProt P00533)
pIC50: −log10 of the molar value.

compound.smiles	pIC50
COc1ccc(/C=C/c2cnc3cc(OC)c(OC)cc3c2)cc1	< 4.70
COc1cc2cc(C3C=CC=C3)cnc2cc1OC	< 4.70
Oc1cc2cc(-c3cccnc3)cnc2cc1O	5.90

====

experimental.target: MAPK14 (human) (UniProt Q16539)
method.description: Assessment of MAPK14 Kinase Activity
pKd: −log10 of the molar value.
quantity.measured: pKd

compound.smiles	experimental.target	value
O=C1Nc2nc(Nc3ccc(O)cc3)ncc2CN1c1ccccc1Cl	MAPK14 (human) (UniProt Q16539)	7.49

====

The reader will find IC50 measurements below, all made with EGFR (human).
quantity.measured: IC50 (µg/mL)

compound	experimental.target	value
OCCN(CCO)CC1COc2cc3ncnc(Nc4cccc(Br)c4)c3cc2O1 (centres undefined)	EGFR (human)	0.021
OCCNCC1COc2cc3ncnc(Nc4cccc(Br)c4)c3cc2O1 (centres undefined)	EGFR (human)	0.022
CN1CCN(CC2COc3cc4ncnc(Nc5cccc(Br)c5)c4cc3O2)CC1 (centres undefined)	EGFR (human)	0.058
Brc1cccc(Nc2ncnc3cc4c(cc23)OC(CN2CCOCC2)CO4)c1 (centres undefined)	EGFR (human)	0.046

====

experimental.target: EGFR (human) (UniProt P00533)
Sequence (P00533 whole entry, looked up): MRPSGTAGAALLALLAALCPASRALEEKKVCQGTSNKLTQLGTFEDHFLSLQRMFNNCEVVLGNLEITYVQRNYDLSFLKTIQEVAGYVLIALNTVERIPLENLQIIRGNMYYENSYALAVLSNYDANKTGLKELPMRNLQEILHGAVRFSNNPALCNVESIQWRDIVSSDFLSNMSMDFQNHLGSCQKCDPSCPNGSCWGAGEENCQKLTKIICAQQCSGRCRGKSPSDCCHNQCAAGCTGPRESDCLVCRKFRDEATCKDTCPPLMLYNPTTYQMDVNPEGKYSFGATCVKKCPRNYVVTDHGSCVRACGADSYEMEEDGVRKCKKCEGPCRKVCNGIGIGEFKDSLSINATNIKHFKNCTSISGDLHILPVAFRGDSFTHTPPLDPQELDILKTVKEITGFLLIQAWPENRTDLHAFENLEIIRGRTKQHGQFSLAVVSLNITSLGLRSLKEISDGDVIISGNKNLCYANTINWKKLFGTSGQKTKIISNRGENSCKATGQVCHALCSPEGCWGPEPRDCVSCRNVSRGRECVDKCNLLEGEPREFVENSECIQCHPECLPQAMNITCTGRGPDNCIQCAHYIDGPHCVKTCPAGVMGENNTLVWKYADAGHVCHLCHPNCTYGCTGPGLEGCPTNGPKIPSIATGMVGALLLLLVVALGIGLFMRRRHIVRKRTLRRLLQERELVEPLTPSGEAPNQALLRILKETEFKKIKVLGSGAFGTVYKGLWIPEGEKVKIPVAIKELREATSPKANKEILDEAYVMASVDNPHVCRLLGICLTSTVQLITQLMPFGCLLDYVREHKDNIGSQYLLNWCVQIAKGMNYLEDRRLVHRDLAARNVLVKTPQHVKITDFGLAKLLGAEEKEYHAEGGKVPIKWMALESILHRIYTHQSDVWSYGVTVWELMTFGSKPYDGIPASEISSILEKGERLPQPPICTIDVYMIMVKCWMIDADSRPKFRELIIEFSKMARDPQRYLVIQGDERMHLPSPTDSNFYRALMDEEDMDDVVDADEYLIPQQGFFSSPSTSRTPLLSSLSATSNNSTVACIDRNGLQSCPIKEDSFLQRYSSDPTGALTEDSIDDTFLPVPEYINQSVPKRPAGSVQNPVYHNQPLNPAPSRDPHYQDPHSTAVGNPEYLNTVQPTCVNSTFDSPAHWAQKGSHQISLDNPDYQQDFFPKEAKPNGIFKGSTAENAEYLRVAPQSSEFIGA
conditions.used: a431
pIC50: −log10 of the molar value.

compound.smiles	pIC50
N.N.[Cl][Pt][Cl]	5.12

====

experimental.target: ROCK2 (human) (UniProt O75116)
Sequence (O75116 whole entry, looked up): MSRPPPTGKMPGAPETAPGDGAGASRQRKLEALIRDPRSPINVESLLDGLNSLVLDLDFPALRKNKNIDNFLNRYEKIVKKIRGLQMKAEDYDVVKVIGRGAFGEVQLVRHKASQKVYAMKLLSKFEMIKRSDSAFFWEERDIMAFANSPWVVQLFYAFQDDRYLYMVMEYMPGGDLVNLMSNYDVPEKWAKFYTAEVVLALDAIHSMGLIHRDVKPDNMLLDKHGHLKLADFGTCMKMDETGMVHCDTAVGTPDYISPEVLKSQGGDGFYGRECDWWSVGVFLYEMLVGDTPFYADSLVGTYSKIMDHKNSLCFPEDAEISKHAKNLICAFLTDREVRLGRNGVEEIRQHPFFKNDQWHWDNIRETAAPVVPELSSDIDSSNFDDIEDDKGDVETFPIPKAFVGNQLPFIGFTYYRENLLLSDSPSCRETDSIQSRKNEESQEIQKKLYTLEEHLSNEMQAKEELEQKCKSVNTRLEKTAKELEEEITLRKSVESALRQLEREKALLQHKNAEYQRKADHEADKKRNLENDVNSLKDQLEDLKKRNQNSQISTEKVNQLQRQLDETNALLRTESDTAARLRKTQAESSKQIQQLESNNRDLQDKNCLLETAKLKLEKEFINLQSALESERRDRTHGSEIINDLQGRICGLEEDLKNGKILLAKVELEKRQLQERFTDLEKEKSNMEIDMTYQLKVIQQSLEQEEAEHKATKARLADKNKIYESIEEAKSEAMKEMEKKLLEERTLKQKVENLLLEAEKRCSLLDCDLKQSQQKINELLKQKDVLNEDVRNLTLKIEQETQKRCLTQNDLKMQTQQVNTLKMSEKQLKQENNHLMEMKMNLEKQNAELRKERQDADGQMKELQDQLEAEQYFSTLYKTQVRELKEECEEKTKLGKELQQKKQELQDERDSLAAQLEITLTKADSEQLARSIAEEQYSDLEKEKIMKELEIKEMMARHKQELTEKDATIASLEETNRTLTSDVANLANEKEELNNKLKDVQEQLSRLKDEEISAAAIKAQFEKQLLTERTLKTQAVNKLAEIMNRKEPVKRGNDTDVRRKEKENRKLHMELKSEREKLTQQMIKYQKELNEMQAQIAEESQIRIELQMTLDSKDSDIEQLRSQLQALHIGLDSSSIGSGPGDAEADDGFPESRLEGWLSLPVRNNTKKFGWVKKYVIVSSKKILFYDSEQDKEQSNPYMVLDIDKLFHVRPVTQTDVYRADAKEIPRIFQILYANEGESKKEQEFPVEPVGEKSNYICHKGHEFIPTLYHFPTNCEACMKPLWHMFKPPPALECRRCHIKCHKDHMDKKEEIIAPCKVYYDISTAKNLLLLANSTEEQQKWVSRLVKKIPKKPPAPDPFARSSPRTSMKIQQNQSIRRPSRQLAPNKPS
method.description: Inhibition of ROCK2 Kinase Activity
Reported IC50 is given for each of the following molecules.

compound.smiles	experimental.target	unit.label	qualifier.sign	IC50
Nc1nc(Nc2cc(F)c(Sc3ccncc3)c(Cl)c2)cc(N2C[C@H]3CCCN[C@H]3C2)n1	ROCK2 (human) (UniProt O75116)	nM	=	6
NCC1(c2ccc(Cl)cc2)CCN(c2ncnc3[nH]ccc23)CC1	ROCK2 (human) (UniProt O75116)	nM	<	100
CN1CCCN(c2nc(-c3ccncc3)cnc2N)CC1	ROCK2 (human) (UniProt O75116)	nM	=	3100
Nc1nc(Nc2ccc(Sc3ccncc3)c(F)c2)cc(-c2ccc3ncccc3c2)n1	ROCK2 (human) (UniProt O75116)	nM	=	7
C[C@H]1CN(C(=O)CN)CCCN1S(=O)(=O)c1cccc2cncc(F)c12	ROCK2 (human) (UniProt O75116)	nM	=	32.1

====

experimental.target: CDK2 (human) (UniProt P24941)
method.description: Enzyme Assay
pIC50: −log10 of the molar value.
Decide using pIC50: a value greater than or equal to 6 is Satisfied, a smaller one is Not satisfied.

molecule	experimental.target	class
CCC(Nc1nc(NCc2ccc(C(F)(F)F)nc2)c2ncn(C(C)C)c2n1)C(O)C(F)(F)F (stereo unspecified)	CDK2 (human) (UniProt P24941)	Satisfied
CC[C@H](Nc1nc(NCc2cccnc2)c2ncn(C(C)C)c2n1)C(C)(C)O	CDK2 (human) (UniProt P24941)	Satisfied
CC[C@H](Nc1nc(NCc2cccc(Cl)c2)c2ncn(C(C)C)c2n1)[C@@H](C)O	CDK2 (human) (UniProt P24941)	Satisfied
CC[C@H](Nc1nc(NCc2cccc(F)c2)c2ncn(C(C)C)c2n1)[C@@H](C)O	CDK2 (human) (UniProt P24941)	Satisfied
CC[C@H](Nc1nc(NCc2ccc(C)nc2)c2ncn(C(C)C)c2n1)[C@@H](C)O	CDK2 (human) (UniProt P24941)	Not satisfied

====

The reader will find IC50 measurements below, all made with MAPK14 (UniProt Q16539).
Sequence (Q16539 whole entry, looked up): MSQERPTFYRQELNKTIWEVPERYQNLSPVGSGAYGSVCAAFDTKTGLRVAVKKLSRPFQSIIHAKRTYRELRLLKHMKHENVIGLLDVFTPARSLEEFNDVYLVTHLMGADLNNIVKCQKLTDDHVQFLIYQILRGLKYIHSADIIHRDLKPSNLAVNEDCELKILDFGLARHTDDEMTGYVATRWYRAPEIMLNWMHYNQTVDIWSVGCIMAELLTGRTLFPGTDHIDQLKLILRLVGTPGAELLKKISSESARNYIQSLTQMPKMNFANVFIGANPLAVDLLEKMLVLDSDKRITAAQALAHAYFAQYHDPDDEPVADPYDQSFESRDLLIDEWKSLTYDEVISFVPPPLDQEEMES
quantity.measured: IC50

compound.smiles	experimental.target	value
O=C(CN1CCNCC1)Nc1cccc(Oc2nccc(-c3c(-c4ccc(F)cc4)ncn3C3CCNCC3)n2)c1	MAPK14 (UniProt Q16539)	< 50 µM
COCC(=O)NCCn1cnc(-c2ccc(F)cc2)c1-c1ccnc(OCCC2CCCCC2)n1	MAPK14 (UniProt Q16539)	< 50 µM

====

Reported Ki is given for each of the following molecules.
experimental.target: PIK3CA (human)
method.description: Assessment of PIK3CA Kinase Activity

compound.smiles	Ki [nM]
COCCOc1cnc(Nc2cnc(Cl)c(NS(C)(=O)=O)c2)c(-c2nc(C)nc(N)n2)c1	25
NC(=O)[C@@H]1CCCN1C(=O)Nc1nc2ccc(-c3cnc(N)c(C(F)(F)F)c3)cc2s1	40
Cc1nc(N)nc(-c2cc(Cl)cnc2Nc2cnc(Cl)c(NS(=O)(=O)N(C)C)c2)n1	12

====

Reported IC50 is given for each of the following molecules.
experimental.target: EGFR (UniProt P00533)

compound.smiles	IC50
COC(=O)c1cc(OCc2cc(OC)ccc2OC)ccc1O	> 100 µM
COc1ccc(OC)c(COc2ccc(O)c(C(=O)O)c2)c1	> 100 µM

====

experimental.target: PIK3CD (Human) (UniProt O00329)
Sequence (O00329 whole entry, looked up): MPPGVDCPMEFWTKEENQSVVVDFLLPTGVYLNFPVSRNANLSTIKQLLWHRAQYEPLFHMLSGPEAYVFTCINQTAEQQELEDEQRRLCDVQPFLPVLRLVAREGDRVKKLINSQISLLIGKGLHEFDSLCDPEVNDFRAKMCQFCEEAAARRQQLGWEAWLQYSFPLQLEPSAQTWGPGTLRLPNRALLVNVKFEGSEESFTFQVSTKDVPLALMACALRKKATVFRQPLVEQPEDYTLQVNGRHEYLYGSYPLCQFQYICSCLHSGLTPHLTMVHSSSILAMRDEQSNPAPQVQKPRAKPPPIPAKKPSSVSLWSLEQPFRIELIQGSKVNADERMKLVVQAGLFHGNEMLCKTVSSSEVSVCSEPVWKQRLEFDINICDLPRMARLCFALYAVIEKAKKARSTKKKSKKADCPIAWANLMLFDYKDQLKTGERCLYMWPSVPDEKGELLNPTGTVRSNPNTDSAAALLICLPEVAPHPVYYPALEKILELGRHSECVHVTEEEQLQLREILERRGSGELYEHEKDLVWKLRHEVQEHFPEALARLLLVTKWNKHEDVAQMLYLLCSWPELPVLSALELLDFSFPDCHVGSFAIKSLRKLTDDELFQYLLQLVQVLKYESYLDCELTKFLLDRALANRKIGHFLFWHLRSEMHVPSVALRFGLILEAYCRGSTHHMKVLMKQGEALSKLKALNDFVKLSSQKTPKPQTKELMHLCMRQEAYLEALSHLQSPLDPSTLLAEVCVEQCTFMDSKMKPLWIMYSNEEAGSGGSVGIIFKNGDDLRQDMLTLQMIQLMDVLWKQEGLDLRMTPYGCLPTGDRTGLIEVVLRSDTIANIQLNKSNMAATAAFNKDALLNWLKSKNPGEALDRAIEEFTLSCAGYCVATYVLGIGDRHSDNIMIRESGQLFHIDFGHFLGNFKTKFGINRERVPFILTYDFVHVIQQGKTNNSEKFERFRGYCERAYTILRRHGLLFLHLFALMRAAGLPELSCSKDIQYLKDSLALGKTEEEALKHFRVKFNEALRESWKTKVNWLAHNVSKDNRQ
method.description: Inhibition of PIK3CD Kinase Activity
Hi! Could you tag entries with IC50 below 40 nM as label 1, and those at or above as label 0? Much appreciated.

compound	class
CC1(C)CNC(=O)c2sc(N3CCOC[C@@H]3Cc3c[nH]c4ncccc34)nc2C1	label 1
C=CCN(/C=C1/C(=O)O[C@H](COC)[C@@]2(C)C1=C(O)C(=O)C1=C2[C@H](OC(C)=O)C[C@]2(C)C(=O)CC[C@H]12)CC=C	label 0
C[C@H](Nc1nc(N)ncc1Cl)c1cc2cccc(Cl)c2nc1-c1ccccn1	label 0
O=C1NC(=O)/C(=C/c2ccc3c(c2)OCCO3)S1	label 0
CN1C(=O)COc2ccc(/C=C3\SC(=O)NC3=O)cc21	label 0
C=CCN(/C=C1/C(=O)O[C@H](COC)[C@@]2(C)C1=C(O)C(=O)C1=C2[C@H](OC(C)=O)C[C@]2(C)C(O)CC[C@H]12)CC=C (stereo not given in full)	label 0
CCN(CC)c1ncc2c(n1)-c1sc(NC(=O)N3CCC[C@@]3(Cc3ccccc3)C(N)=O)nc1CC2	label 0
C[C@H](Nc1ncnc2[nH]cnc12)c1cc2cccc(Cl)c2nc1-c1cc(F)ccc1Cl	label 1
Nc1ncnc2c1c(I)nn2Cc1cc2c(Cl)cccc2nc1-c1ccccc1Cl	label 1
O=c1cc(N2CCOCC2)oc2c(-c3ccccc3)cccc12	label 0
O=C1NC(=O)/C(=C/c2ccc3c(c2)NCCO3)S1	label 0
Cc1ccccc1-c1nc2c(C)cccc2cc1COc1ncnc2[nH]cnc12	label 1
N=C1NC(=O)/C(=C/c2ccc3c(c2)OCO3)S1	label 0
Fc1ccc(Cl)c(-c2nc3c(Cl)cccc3cc2CNc2ncnc3[nH]cnc23)c1	label 0
O=C1NC(=O)/C(=C/c2ccc3cc(F)oc3c2)S1	label 0
C[C@H](Nc1ncnc2[nH]cnc12)c1cc2ccc(F)cc2nc1-c1cccnc1	label 1
O=C1NC(=S)S/C1=C\c1ccc2c(c1)OCO2	label 0
Cc1nc2cnc3ccc(C#Cc4cccnc4)cc3c2n1-c1ccc(C(C)(C)C#N)cc1	label 1

====

experimental.target: MAPK14 (UniProt Q16539)
method.description: Inhibition of MAPK14 Kinase Activity
Reported IC50 is given for each of the following compounds.

compound	IC50
CC(C)Nc1ncc2cc(Oc3ccc(F)cc3F)ccc2n1	< 30 nM
COCCNS(=O)(=O)c1ccc(Nc2nccc(-c3cnc4cccnn34)n2)cc1	> 10000 nM
Cc1ccc(-n2nc(C3(C)CC3)cc2NC(=O)Nc2cnc(OC3CCN(C(=O)C4(C)CC4)CC3)c3ccccc23)cc1	34 nM
C[C@H](C(=O)O)N1CCC(c2cc3c(ccc(=O)n3-c3c(Cl)cccc3Cl)c(-c3ccc(F)cc3Cl)n2)CC1	3.2 nM
O=c1ncn2nc(Sc3ccccc3Br)ccc2c1-c1c(Cl)cccc1Cl	250 nM
CCn1c(=O)n(CC)c2cc(-c3[nH]c(-c4ccc(S(C)(=O)=O)cc4)nc3-c3ccc(F)cc3)ccc21	4000 nM
Cc1cccc(Cl)c1Nc1nc2ccc(N3CCN[C@@H](C)C3)nc2n2cncc12	380 nM
Cc1cccc(-n2nnnc2-c2ccc3c(c2)n(C)c(=O)n3C)c1	14400 nM
CCOc1cc2cnc(NC3CCNCC3)nc2n(C)c1=O	> 10000 nM
OC1CCC(Nc2ncc3cc(Oc4ccc(F)cc4F)ccc3n2)CC1 (stereo not given)	< 30 nM
